Quick list: shrunken log2 fold change per entry.
Tested on: Escherichia coli TOP10
Assay: shrunken log2 fold change of peptide-encoding DNA abundance (4.5 h post-induction vs induction); higher = less antimicrobial activity (less host growth inhibition)
Details: time post-induction: 4.5 h; library: site-saturation at positions 5, 18, 19, 20
Number only, no unit.

(Q) Give recorded shrunken log2 fold change with Escherichia coli TOP10 for the following sequence: RRIRLRPPRLPRPRPRPPTPPRP
(A) 0.617

(Q) Give recorded shrunken log2 fold change with Escherichia coli TOP10 for the following sequence: RRIRFRPPRLPRPRPRPDQCPRP
(A) -0.0562

(Q) Give recorded shrunken log2 fold change with Escherichia coli TOP10 for the following sequence: RRIRMRPPRLPRPRPRPWKIPRP
(A) -0.0114

(Q) Give recorded shrunken log2 fold change with Escherichia coli TOP10 for the following sequence: RRIRCRPPRLPRPRPRPKCSPRP
(A) 0.0495

(Q) Give recorded shrunken log2 fold change with Escherichia coli TOP10 for the following sequence: RRIRVRPPRLPRPRPRPNLYPRP
(A) -0.563

(Q) Give recorded shrunken log2 fold change with Escherichia coli TOP10 for the following sequence: RRIRCRPPRLPRPRPRPNNAPRP
(A) -0.799

(Q) Give recorded shrunken log2 fold change with Escherichia coli TOP10 for the following sequence: RRIRGRPPRLPRPRPRPDFNPRP
(A) 0.325

(Q) Give recorded shrunken log2 fold change with Escherichia coli TOP10 for the following sequence: RRIRVRPPRLPRPRPRPFWHPRP
(A) -0.205

(Q) Give recorded shrunken log2 fold change with Escherichia coli TOP10 for the following sequence: RRIRRRPPRLPRPRPRPVNLPRP
(A) 0.219

(Q) Give recorded shrunken log2 fold change with Escherichia coli TOP10 for the following sequence: RRIRQRPPRLPRPRPRPLQNPRP
(A) 0.139

(Q) Give recorded shrunken log2 fold change with Escherichia coli TOP10 for the following sequence: RRIRTRPPRLPRPRPRPWTCPRP
(A) -0.0449

(Q) Give recorded shrunken log2 fold change with Escherichia coli TOP10 for the following sequence: RRIRGRPPRLPRPRPRPIYGPRP
(A) -0.141

(Q) Give recorded shrunken log2 fold change with Escherichia coli TOP10 for the following sequence: RRIRYRPPRLPRPRPRPWDFPRP
(A) -0.0206

* * *

Tested on: Escherichia coli TOP10
Assay: shrunken log2 fold change of peptide-encoding DNA abundance (4.5 h post-induction vs induction); higher = less antimicrobial activity (less host growth inhibition)
Conditions: time post-induction: 4.5 h; library: site-saturation at positions 5, 18, 19, 20
Quick list: shrunken log2 fold change per entry.
Number only, no unit.

Worked cases, shrunken log2 fold change given:
RRIRQRPPRLPRPRPRPCFCPRP : -0.0837
RRIRVRPPRLPRPRPRPRTGPRP : -0.0024
RRIRKRPPRLPRPRPRPARKPRP : -0.0215
RRIRGRPPRLPRPRPRPTGVPRP : 0.742
RRIRSRPPRLPRPRPRPRAVPRP : 0.582
RRIRARPPRLPRPRPRPMGKPRP : 0.472
RRIRFRPPRLPRPRPRPVRWPRP : 0.632
RRIRPRPPRLPRPRPRPKMRPRP : 0.903
RRIRMRPPRLPRPRPRPNANPRP : 0.777
RRIRGRPPRLPRPRPRPYYLPRP : -0.791

(Q) Fill in: shrunken log2 fold change of RRIRYRPPRLPRPRPRPDGMPRP is ___
(A) 0.0112

(Q) Fill in: shrunken log2 fold change of RRIRGRPPRLPRPRPRPTWHPRP is ___
(A) 0.468

(Q) Fill in: shrunken log2 fold change of RRIRFRPPRLPRPRPRPDYKPRP is ___
(A) -0.492

(Q) Fill in: shrunken log2 fold change of RRIRTRPPRLPRPRPRPGAVPRP is ___
(A) 0.104

(Q) Fill in: shrunken log2 fold change of RRIRQRPPRLPRPRPRPHGTPRP is ___
(A) -0.0865

* * *

Test system: Escherichia coli TOP10
Experiment: shrunken log2 fold change of peptide-encoding DNA abundance (4.5 h post-induction vs induction); higher = less antimicrobial activity (less host growth inhibition)
Conditions: time post-induction: 4.5 h; library: site-saturation at positions 5, 18, 19, 20
The label depends only on shrunken log2 fold change: true (1) if it is at least -0.07, false (0) if it is smaller.

(Q) Would you say RRIRHRPPRLPRPRPRPTHLPRP shows shrunken log2 fold change at minimum -0.07?
(A) false (0)

(Q) Would you say RRIRCRPPRLPRPRPRPEEDPRP shows shrunken log2 fold change at minimum -0.07?
(A) true (1)

(Q) Would you say RRIRFRPPRLPRPRPRPNQLPRP shows shrunken log2 fold change at minimum -0.07?
(A) false (0)

(Q) Would you say RRIRKRPPRLPRPRPRPCAQPRP shows shrunken log2 fold change at minimum -0.07?
(A) true (1)

(Q) Would you say RRIRPRPPRLPRPRPRPMPVPRP shows shrunken log2 fold change at minimum -0.07?
(A) true (1)

(Q) Would you say RRIRDRPPRLPRPRPRPHPHPRP shows shrunken log2 fold change at minimum -0.07?
(A) false (0)

(Q) Would you say RRIRIRPPRLPRPRPRPHRAPRP shows shrunken log2 fold change at minimum -0.07?
(A) true (1)

(Q) Would you say RRIRYRPPRLPRPRPRPETYPRP shows shrunken log2 fold change at minimum -0.07?
(A) false (0)

* * *

Tested on: Escherichia coli TOP10
Assay: shrunken log2 fold change of peptide-encoding DNA abundance (4.5 h post-induction vs induction); higher = less antimicrobial activity (less host growth inhibition)
Settings: time post-induction: 4.5 h; library: site-saturation at positions 5, 18, 19, 20
property: shrunken log2 fold change

RRIRFRPPRLPRPRPRPISCPRP : -0.038

Turning now to a further sequence:
(Q) Fill in: shrunken log2 fold change of RRIRNRPPRLPRPRPRPILRPRP is ___
(A) -0.455

* * *

Test system: Escherichia coli TOP10
Experiment: shrunken log2 fold change of peptide-encoding DNA abundance (4.5 h post-induction vs induction); higher = less antimicrobial activity (less host growth inhibition)
Conditions: time post-induction: 4.5 h; library: site-saturation at positions 5, 18, 19, 20
The label depends only on shrunken log2 fold change: true if it is at least -0.3, false if it is smaller.

# example entries with known answers
RRIRFRPPRLPRPRPRPQMWPRP : true
RRIRGRPPRLPRPRPRPLTLPRP : true
RRIRDRPPRLPRPRPRPLRIPRP : true
RRIRWRPPRLPRPRPRPPWDPRP : true
RRIRMRPPRLPRPRPRPVYLPRP : false
RRIRWRPPRLPRPRPRPHEKPRP : true
RRIRFRPPRLPRPRPRPEIMPRP : true
RRIRCRPPRLPRPRPRPDWDPRP : true

(Q) Would you say RRIRERPPRLPRPRPRPLYKPRP shows shrunken log2 fold change at minimum -0.3?
(A) false

(Q) Would you say RRIRIRPPRLPRPRPRPFYQPRP shows shrunken log2 fold change at minimum -0.3?
(A) true

(Q) Would you say RRIRCRPPRLPRPRPRPLCSPRP shows shrunken log2 fold change at minimum -0.3?
(A) false

(Q) Would you say RRIRERPPRLPRPRPRPLQCPRP shows shrunken log2 fold change at minimum -0.3?
(A) true

(Q) Would you say RRIRMRPPRLPRPRPRPRCCPRP shows shrunken log2 fold change at minimum -0.3?
(A) true

(Q) Would you say RRIRWRPPRLPRPRPRPTARPRP shows shrunken log2 fold change at minimum -0.3?
(A) true

* * *

Quick list: shrunken log2 fold change per entry.
System: Escherichia coli TOP10
Test: shrunken log2 fold change of peptide-encoding DNA abundance (4.5 h post-induction vs induction); higher = less antimicrobial activity (less host growth inhibition)
Settings: time post-induction: 4.5 h; library: site-saturation at positions 5, 18, 19, 20
Number only, no unit.

RRIRCRPPRLPRPRPRPAEKPRP : -0.0214
RRIRHRPPRLPRPRPRPYEKPRP : -0.195
RRIRFRPPRLPRPRPRPRHAPRP : 0.389

(Q) Fill in: shrunken log2 fold change of RRIRVRPPRLPRPRPRPYHIPRP is ___
(A) -1.2

(Q) Fill in: shrunken log2 fold change of RRIRQRPPRLPRPRPRPEGSPRP is ___
(A) -0.00794

(Q) Fill in: shrunken log2 fold change of RRIRPRPPRLPRPRPRPKIFPRP is ___
(A) -0.0976

(Q) Fill in: shrunken log2 fold change of RRIRFRPPRLPRPRPRPANAPRP is ___
(A) -0.0885

(Q) Fill in: shrunken log2 fold change of RRIRIRPPRLPRPRPRPDICPRP is ___
(A) -0.0265

* * *

Test system: Escherichia coli TOP10;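 also: peptides expressed intracellularly from a pBAD plasmid library in pooled LB shake-flask culture, induced with 0.3% L-arabinose, DNA abundance read by NGS, three biological replicates, DESeq2 with apeglm shrinkage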
Experiment: shrunken log2 fold change of peptide-encoding DNA abundance (4.5 h post-induction vs induction); higher = less antimicrobial activity (less host growth inhibition)
Settings: time post-induction: 4.5 h; library: site-saturation at positions 5, 18, 19, 20
The label depends only on shrunken log2 fold change: true (1) if it is at least 0.2, false (0) if it is smaller.

(Q) Would you say RRIRIRPPRLPRPRPRPACDPRP shows shrunken log2 fold change at minimum 0.2?
(A) false (0)

(Q) Would you say RRIRQRPPRLPRPRPRPWLRPRP shows shrunken log2 fold change at minimum 0.2?
(A) false (0)

(Q) Would you say RRIRVRPPRLPRPRPRPRANPRP shows shrunken log2 fold change at minimum 0.2?
(A) true (1)

(Q) Would you say RRIRWRPPRLPRPRPRPWDAPRP shows shrunken log2 fold change at minimum 0.2?
(A) true (1)

(Q) Would you say RRIRPRPPRLPRPRPRPEVDPRP shows shrunken log2 fold change at minimum 0.2?
(A) false (0)

(Q) Would you say RRIRHRPPRLPRPRPRPGPGPRP shows shrunken log2 fold change at minimum 0.2?
(A) true (1)

(Q) Would you say RRIRRRPPRLPRPRPRPWKDPRP shows shrunken log2 fold change at minimum 0.2?
(A) false (0)

(Q) Would you say RRIRFRPPRLPRPRPRPGDRPRP shows shrunken log2 fold change at minimum 0.2?
(A) false (0)

// provenance: the supplement of paper PMC9112550
